test system: Mice; test: analgesic activity by pressure stimulation method (tail base); assay type: in vivo; conditions: percent of maximum possible effect, 1 mg/kg subcutaneous administration (skin in the backs), maximum stimulating pressure 100 mmHg
The following compounds are shown together with reported MPE(%) 1 mg/kg s.c. (%) values.
Give your result in % as a bare value.

compound: CN(CCC(=O)O)C(=O)[C@H](CCc1ccccc1)NC(=O)[C@@H](CCCNC(=N)N)NC(=O)[C@H](Cc1ccc(O)cc1)NC(=N)N
MPE(%) 1 mg/kg s.c. (%): 32.83
//
compound: CC(=N)N[C@@H](Cc1ccc(O)cc1)C(=O)N[C@H](CCCCN)C(=O)N[C@@H](Cc1ccccc1)C(=O)N(C)CCC(=O)O
MPE(%) 1 mg/kg s.c. (%): 87.11
//
compound: CC(=N)N[C@@H](Cc1ccc(O)cc1)C(=O)N[C@H](CC[S+](C)[O-])C(=O)N[C@@H](Cc1ccccc1)C(=O)N(C)CCC(=O)O (stereo partly shown)
MPE(%) 1 mg/kg s.c. (%): 100

Proceeding to the next compound to report its MPE(%) 1 mg/kg s.c. (%).
Data request: Query the reported MPE(%) 1 mg/kg s.c. (%) for Mice; item: CC(=N)NC[C@@H](NC(=O)[C@H](Cc1ccc(O)cc1)NC(=N)N)C(=O)N[C@@H](Cc1ccccc1)C(=O)N(C)CCC(=O)O
Data returned: 66.61

====

MPE(%) 1 mg/kg s.c. (%) reference
test system: Mice; test: analgesic activity by pressure stimulation method (tail base); assay type: in vivo; settings: percent of maximum possible effect, 1 mg/kg subcutaneous administration (skin in the backs), maximum stimulating pressure 100 mmHg
# output: bare number, implied unit %

Some solved entries appear below for comparison.
compound: Cc1cc(O)cc(C)c1C[C@H](NC(=N)N)C(=O)N[C@H](CCCNC(=N)N)C(=O)N[C@@H](Cc1ccccc1)C(=O)N(C)CCC(=O)O [Example 2]
MPE(%) 1 mg/kg s.c. (%): 93.47
//
compound: CN(CCC(=O)O)C(=O)[C@H](CC1CCCCC1)NC(=O)[C@@H](CCCNC(=N)N)NC(=O)[C@H](Cc1ccc(O)cc1)NC(=N)N [Example 27]
MPE(%) 1 mg/kg s.c. (%): 52.14

From here, focus on the item given below.
Data request: # input compound: CN(CCC(=O)O)C(=O)[C@H](Cc1ccccc1)NC(=O)[C@@H](CCCNC(=N)N)NC(=O)[C@H](Cc1ccc(O)c(O)c1)NC(=N)N [Example 4] ; wanted: its MPE(%) 1 mg/kg s.c. (%)
Data returned: 70.85

====

List of MPE(%) 1 mg/kg s.c. (%) values.
test system: Mice; experiment: analgesic activity by pressure stimulation method (tail base); type: in vivo; details: percent of maximum possible effect, 1 mg/kg subcutaneous administration (skin in the backs), maximum stimulating pressure 100 mmHg

chemical structure: CN(CCC(=O)O)C(=O)[C@H](Cc1ccc(O)cc1)NC(=O)[C@@H](CCCNC(=N)N)NC(=O)[C@H](Cc1ccc(O)cc1)NC(=N)N
MPE(%) 1 mg/kg s.c. (%): 22.55%
//
chemical structure: CC(=N)NCCC[C@@H](NC(=O)[C@H](Cc1ccc(O)cc1)NC(=N)N)C(=O)N[C@@H](Cc1ccccc1)C(=O)N(C)CCC(=O)O
MPE(%) 1 mg/kg s.c. (%): 100%

Continue with the next compound.
Data request: Quick one: MPE(%) 1 mg/kg s.c. (%) for CN(CCC(=O)O)C(=O)[C@H](Cc1ccccc1)NC(=O)[C@@H](CCNC(=N)N)NC(=O)[C@H](Cc1ccc(O)cc1)NC(=N)N ?
Data returned: 42.78%
